Ref: paper PMC11796312

experiment: Pharmacokinetic study after i.g. administration; format: in vivo; conditions: ICR-CD1, mouse, po; mice, 10 mg/kg i.g., plasma; read-out: λz (converted)

{"compound": "O[C@H](CNCC1CC1)[C@H](Cc1ccccc1)NC1c2ccccc2-c2ccccc21 [Compound 6]", "k el": "6e-05 s⁻¹"}

====

test: Cell viability, PrestoBlue (immunotoxicity); format: cell-based; conditions: mouse; BV-2, 10 µM, 24 h; read-out: viability, immuntoxicity X [%]

{"molecule": "O[C@H](CNCC1CC1)[C@H](Cc1ccccc1)NC1c2ccccc2-c2ccccc21 [Compound 6]", "units.of.measure": "%", "viability at 24 h, 10 µM": 94.8}

====

test: Cell viability, PrestoBlue (neurotoxicity); format: cell-based; conditions: mouse; HT-22, 50 µM, 24 h; read-out: viability, neurotoxicity X [%]

{"chem.smiles": "O[C@H](CNCC1CC1)[C@H](Cc1ccccc1)NC1c2ccccc2-c2ccccc21", "units.of.measure": "%", "viability at 24 h, 50 µM": 9.5}

====

experiment: Pharmacokinetic study after i.p. administration; format: in vivo; settings: ICR-CD1, mouse, plasma, ip, 10 mg/kg, mice, 10 mg/kg i.p., plasma; read-out: Half-life

{"chem.smiles": "O[C@H](CNCC1CC1)[C@H](Cc1ccccc1)NC1c2ccccc2-c2ccccc21", "units.of.measure": "h", "half-life": 2.69}

====

biological target: eeAChE (Electrophorus electricus, UniProt O42275); construct: purchased Sigma-Aldrich; assay: Cholinesterase inhibition, Ellman's protocol, eeAChE; type: biochemical; settings: read-out: eeAChE % inh.
Sequence (O42275 24-633): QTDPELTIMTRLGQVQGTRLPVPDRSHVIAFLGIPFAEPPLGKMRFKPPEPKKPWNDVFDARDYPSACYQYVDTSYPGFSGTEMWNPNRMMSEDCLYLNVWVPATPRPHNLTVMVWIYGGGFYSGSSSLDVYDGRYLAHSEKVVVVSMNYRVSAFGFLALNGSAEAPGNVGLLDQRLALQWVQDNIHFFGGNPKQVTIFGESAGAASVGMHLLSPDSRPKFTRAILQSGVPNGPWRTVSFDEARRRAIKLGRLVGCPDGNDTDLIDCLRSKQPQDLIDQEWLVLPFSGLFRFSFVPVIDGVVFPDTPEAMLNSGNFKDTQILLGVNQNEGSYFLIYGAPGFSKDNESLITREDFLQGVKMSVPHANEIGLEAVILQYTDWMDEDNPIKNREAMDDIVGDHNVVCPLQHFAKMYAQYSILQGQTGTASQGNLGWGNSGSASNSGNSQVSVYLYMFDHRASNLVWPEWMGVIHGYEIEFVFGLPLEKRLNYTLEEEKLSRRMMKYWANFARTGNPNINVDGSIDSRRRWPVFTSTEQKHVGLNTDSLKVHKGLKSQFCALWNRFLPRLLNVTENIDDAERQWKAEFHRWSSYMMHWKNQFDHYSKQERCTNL

{"compound": "CC(C)(C)c1cccc(CNC[C@@H](O)[C@H](Cc2ccccc2)NC2c3ccccc3-c3ccccc32)c1 [Compound 4]", "inhibition at 10 µM": "< 10%"}
{"compound": "O[C@@H](CNCC1CCCCC1)[C@H](Cc1ccccc1)NC1c2ccccc2-c2ccccc21 [Compound 5]", "inhibition at 10 µM": "19.9%"}
{"compound": "COc1cccc(CNC[C@H](O)[C@H](Cc2ccccc2)NC2c3ccccc3-c3ccccc32)c1 [Compound 3]", "inhibition at 10 µM": "< 10%"}
{"compound": "COc1ccccc1CNC[C@H](O)[C@H](Cc1ccccc1)NC1c2ccccc2-c2ccccc21 [Compound 2]", "inhibition at 10 µM": "< 10%"}
{"compound": "O[C@H](CNCC1CC1)[C@H](Cc1ccccc1)NC1c2ccccc2-c2ccccc21 [Compound 6]", "inhibition at 10 µM": "< 10%"}
{"compound": "O[C@H](CNCc1ccccc1)[C@H](Cc1ccccc1)NC1c2ccccc2-c2ccccc21 [Compound 1]", "inhibition at 10 µM": "< 10%"}

====

assay: Pharmacokinetic study after i.p. administration; type: in vivo; settings: ICR-CD1, mouse, brain, ip, 10 mg/kg, mice, 10 mg/kg i.p.; read-out: brain Tmax (converted)

{"chem.smiles": "O[C@H](CNCC1CC1)[C@H](Cc1ccccc1)NC1c2ccccc2-c2ccccc21", "units.of.measure": "min", "Tmax": 55}

====

assay: Cell viability, PrestoBlue (neurotoxicity); type: cell-based; settings: mouse; HT-22, 10 µM, 24 h; read-out: viability, neurotoxicity X [%]

{"chem.smiles": "O[C@H](CNCC1CC1)[C@H](Cc1ccccc1)NC1c2ccccc2-c2ccccc21", "viability at 24 h, 10 µM, %": 99}
